Assay: Apparent permeability across basolateral side to apical side in human Caco2 cells
Settings: Caco-2
Label true for high-side Papp B→A (at or above 30 ×10⁻⁶ cm/s) and false for low-side Papp B→A (below it).

Textbook exercise: given the entry N#Cc1cc(-c2nc(N)[nH]c(=O)c2Cl)ccc1OCC1CCOC1 (stereo not given) , state whether its Papp B→A is greater than or equal to 30 ×10⁻⁶ cm/s.
false

----------
Experiment: Plasma concentration in potassium oxonate-induced hyperuricemic Sprague-Dawley rat model at 10 mg/kg, po measured after 2 hrs
Assay type: ADME, organism-based
Design: dose 10 mg/kg, route oral
We begin with a simple list: items and their reported concentration at 2 h.
Write the value in µM as a bare number.

Determine its reported concentration at 2 h: Cc1nc(-c2ccc(OCC(C)C)c(C#N)c2)sc1C(=O)O [FEBUXOSTAT]
8.7

For the compound Nc1nc(-c2ccc(OCC3CCOC3)c(OC(F)(F)F)c2)c(Cl)c(=O)[nH]1 (configuration not stated) , give its reported concentration at 2 h.
0.37
